experiment: Approximate solubility in various solvents at ambient temperature (aliquot addition, visual observation); type: physicochemical; conditions: organic solvent or mixture, thermodynamic from solid; EtOH, ambient temperature; read-out: Solubility
METRIC NAME: solubility (mg/mL)
Report the figure in mg/mL without appending any unit label.

Any idea what solubility was measured for CN[C@H](C)Cc1ccc2c(c1)OCO2.Cl [R-MDMA HCl Form I] ? 25

====

test: Approximate solubility in various solvents at ambient temperature (aliquot addition, visual observation); format: physicochemical; conditions: organic solvent or mixture, thermodynamic from solid; MeOH/MTBE (5:95), ambient temperature; read-out: Solubility
METRIC NAME: solubility

Requested read-out: solubility. Entry: CN[C@H](C)Cc1ccc2c(c1)OCO2.Cl [R-MDMA HCl Form I] < 1000 µg/mL

====

assay: Approximate solubility in various solvents at ambient temperature (aliquot addition, visual observation); format: physicochemical; conditions: organic solvent or mixture, thermodynamic from solid; MeOH/MTBE (20:80), ambient temperature; read-out: Solubility
METRIC NAME: solubility (µg/mL)
Express your answer in µg/mL, writing the number without its unit.

Name the recorded solubility for CN[C@H](C)Cc1ccc2c(c1)OCO2.Cl [R-MDMA HCl Form I] . 3000

====

assay: Approximate solubility in various solvents at ambient temperature (aliquot addition, visual observation); format: physicochemical; conditions: organic solvent or mixture, thermodynamic from solid; CAN, ambient temperature; read-out: Solubility
METRIC NAME: solubility (µg/mL)
Record the value in µg/mL, omitting the unit from your answer.

Quick one: solubility of CN[C@H](C)Cc1ccc2c(c1)OCO2.Cl [R-MDMA HCl Form I] ? 7000

====

experiment: Approximate solubility in various solvents at ambient temperature (aliquot addition, visual observation); type: physicochemical; details: organic solvent or mixture, thermodynamic from solid; MeOH, ambient temperature; read-out: Solubility
METRIC NAME: solubility

// lookup solubility for CN[C@H](C)Cc1ccc2c(c1)OCO2.Cl [R-MDMA HCl Form I] > 114 mg/mL

====

assay: Approximate solubility in various solvents at ambient temperature (aliquot addition, visual observation); format: physicochemical; conditions: organic solvent or mixture, thermodynamic from solid; Heptane, ambient temperature; read-out: Solubility
METRIC NAME: solubility

Quick check: solubility of CN[C@H](C)Cc1ccc2c(c1)OCO2.Cl [R-MDMA HCl Form I] ? < 1000 µg/mL

====

assay: Approximate solubility in various solvents at ambient temperature (aliquot addition, visual observation); format: physicochemical; details: organic solvent or mixture, thermodynamic from solid; t-BuOH, ambient temperature; read-out: Solubility
METRIC NAME: solubility (µg/mL)
Lab book: enter the figure in µg/mL, no units written.

What solubility value was documented for this molecule, CN[C@H](C)Cc1ccc2c(c1)OCO2.Cl [R-MDMA HCl Form I] ? 1000

====

experiment: Approximate solubility in various solvents at ambient temperature (aliquot addition, visual observation); type: physicochemical; details: organic solvent or mixture, thermodynamic from solid; IPA, ambient temperature; read-out: Solubility
METRIC NAME: solubility (µg/mL)
Write down the numeric answer in µg/mL and omit the unit.

Form field: reported solubility of CN[C@H](C)Cc1ccc2c(c1)OCO2.Cl [R-MDMA HCl Form I] 6000

====

experiment: Approximate solubility in various solvents at ambient temperature (aliquot addition, visual observation); assay type: physicochemical; conditions: organic solvent or mixture, thermodynamic from solid; MTBE, ambient temperature; read-out: Solubility
METRIC NAME: solubility

What solubility value was documented for this compound, CN[C@H](C)Cc1ccc2c(c1)OCO2.Cl [R-MDMA HCl Form I] ? < 1000 µg/mL
